Data provenance is patent US8952024B2.

Kindly state Plant response rating, Foxtail, Giant for each of the entries shown.
# System: giant foxtail (Setaria faberii)
# Assay name: Test A pre-/postemergence plant response
# Assay type: in vivo
# Experimental context: Preemergence, 500 g ai/ha; visual injury, 0 to 100 scale (0 no effect, 100 complete control), approx. ten days
API doc: respond with a numeric literal and nothing else, no unit.

Given the entry `O=C1CCCC(O)=C1C(=O)c1cnc(-c2ccccc2Cl)n(-c2ccccc2)c1=O` , what Plant response rating, Foxtail, Giant was observed with giant foxtail (Setaria faberii)?
10

Given the entry `O=C1CCCC(OC(=O)C2CC2)=C1C(=O)c1cnc(-c2ccccc2)n(-c2ccccc2)c1=O` , what Plant response rating, Foxtail, Giant was observed with giant foxtail (Setaria faberii)?
100

Given the entry `CC(C)CC(=O)OC1=C(C(=O)c2cnc(-c3ccccc3)n(-c3ccccc3)c2=O)C(=O)CCC1` , what Plant response rating, Foxtail, Giant was observed with giant foxtail (Setaria faberii)?
90

Given the entry CCCc1ncc(C(=O)C2=C(O)CCCC2=O)c(=O)n1CC1CCCO1 (centres unmarked) , what Plant response rating, Foxtail, Giant was observed with giant foxtail (Setaria faberii)?
40

Given the entry `CCCc1ncc(C(=O)C2=C(O)CCCC2=O)c(=O)n1Cc1cccc(OC)c1` , what Plant response rating, Foxtail, Giant was observed with giant foxtail (Setaria faberii)?
0

Given the entry `Cc1cc(C)cc(-n2c(-c3ccccc3)ncc(C(=O)C3=C(O)CCCC3=O)c2=O)c1` , what Plant response rating, Foxtail, Giant was observed with giant foxtail (Setaria faberii)?
90

Given the entry `O=C1CCCC(O)=C1C(=O)c1cnc(-c2cccc(Cl)c2)n(-c2ccc(Cl)cc2)c1=O` , what Plant response rating, Foxtail, Giant was observed with giant foxtail (Setaria faberii)?
70

Given the entry `CCCn1c(-c2ccco2)ncc(C(=O)C2=C(O)CCCC2=O)c1=O` , what Plant response rating, Foxtail, Giant was observed with giant foxtail (Setaria faberii)?
10
